Measured values drawn from the supplement of paper PMC10567573 for this set.

Answer each item with its documented protein stability index.
B1: HSP90AB1 (parent)
chain: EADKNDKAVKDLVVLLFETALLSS

Variants of: B1
Assay: protein stability index of a GFP-peptide fusion (GPS, HEK-293T) (PSI 1-6); higher = more stable;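 also: lentivirally expressed fusions sorted by FACS into six bins by GFP to DsRed ratio, PSI derived from sequencing read proportions per bin multiplied by bin number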
Settings: c terminus: a fixed tail appended
Please give the numeric answer without any surrounding text.

Query block: Value lookup for protein stability index; key = EADKNDKAVWDLVVLLFETALLSS [K10W]
Result block: 1.83

Query block: Value lookup for protein stability index; key = EADKNDKAVKDLVVLLFETAYLSS [L21Y]
Result block: 1.48

Query block: Value lookup for protein stability index; key = EADKNDKAVKDLVVLLFENALLSS [T19N]
Result block: 2.15

Query block: Value lookup for protein stability index; key = EADKNDKAVKDLVVSLFETALLSS [L15S]
Result block: 2.77

Query block: Value lookup for protein stability index; key = EADKNDKAVMDLVVLLFETALLSS [K10M]
Result block: 1.83

Query block: Value lookup for protein stability index; key = EADKNDKAWKDLVVLLFETALLSS [V9W]
Result block: 1.7

Query block: Value lookup for protein stability index; key = EADKRDKAVKDLVVLLFETALLSS [N5R]
Result block: 1.63

Query block: Value lookup for protein stability index; key = EADNNDKAVKDLVVLLFETALLSS [K4N]
Result block: 2.05

Query block: Value lookup for protein stability index; key = EADKNDKASKDLVVLLFETALLSS [V9S]
Result block: 2.1

Query block: Value lookup for protein stability index; key = EADKNDKAVKDLVVLLFETALVSS [L22V]
Result block: 2.17

Query block: Value lookup for protein stability index; key = EADKFDKAVKDLVVLLFETALLSS [N5F]
Result block: 1.64

Query block: Value lookup for protein stability index; key = EADKNDKAVKDLVVLLFEQALLSS [T19Q]
Result block: 1.75
